Test system: P-gp (MDR1)
Experiment: MDR1-MDCK Efflux Ratio Assay
Format: in vitro ADME
Conditions: dog, MDCK-MDR1, pH 7.4, MDR1-MDCK cells, 2 hr, pH 7.4; read-out: MDR1-MDCK Efflux Ratio (B-A/A-B)
Protocol: MDR1-MDCK cell monolayers were grown to confluence on microporous polyester membranes in 96-well Corning insert plates. The permeability assay buffer was Hanks' Balanced Salt Solution containing 10 mM HEPES at pH of 7.4. Loperamide (1 μM) was used as a positive control P-gp substrate. Propranolol and Bestatin (1 μM) were used as high and low permeability comparators, respectively. […] Test and control compound concentrations were determined using LC-MS/MS analysis. […]
Here the recorded efflux ratio at 2 h is given for each entry.

Worked cases, answers included:
COMPOUND	efflux ratio at 2 h
[2H][C@@]1(Oc2cc(OC)ncn2)C[C@H](C)N(Cc2cnc(NC(C)=O)s2)C1 (single isomer, unassigned)	5.9
CC(=O)Nc1nc(F)c(CN2C[C@H](Oc3cc(O)ncn3)C[C@@H]2C)s1	12.7
CC(=O)Nc1ncc(CN2C[C@H](Oc3ccc(F)nn3)C[C@@H]2C)s1	38.6

What measured efflux ratio at 2 h goes with `CC(=O)Nc1ncc(CN2C[C@H](Oc3ccc(F)nc3)C[C@@H]2C)s1` ?
4.7

Given the entry `CC(=O)Nc1nc(F)c(CN2C[C@H](Oc3cncnc3)C[C@@H]2C)s1` , report its measured efflux ratio at 2 h.
6.3

Request the reported efflux ratio at 2 h associated with `COc1cncc(O[C@@H]2C[C@H](C)N(Cc3cnc(NC(C)=O)s3)C2)n1`
10

Please look up its efflux ratio at 2 h: `CC(=O)Nc1ncc(CN2C[C@H](Oc3cc(OC4CN(C)C4)ncn3)C[C@@H]2C)s1`
1

Please report the recorded efflux ratio at 2 h for `CC(=O)Nc1ncc(CN2C[C@H](Oc3ccnc(C)n3)C[C@@H]2C)s1` .
16

Which value of efflux ratio at 2 h has been reported for `CC(=O)Nc1nc(F)c(CN2C[C@H](Oc3cc(OC4COC4)ncn3)C[C@@H]2C)s1` in the records?
8.4

So what does the record say about efflux ratio at 2 h for `CC(=O)Nc1nc(F)c(CN2C[C@H](Oc3cc(C)ncc3C)C[C@@H]2C)s1` ?
17.2

Fill in: efflux ratio at 2 h of `CC(=O)Nc1ncc(CN2C[C@H](Oc3ccc(F)cn3)C[C@H]2C)s1` is ___
1.9

---

tested on: P-gp (MDR1); experiment: MDR1-MDCK Efflux Ratio Assay; type: in vitro ADME; details: dog, MDCK-MDR1, pH 7.4, MDR1-MDCK cells, 2 hr, pH 7.4; read-out: MDR1-MDCK Efflux Ratio (B-A/A-B)
label 1 if efflux ratio at 2 h is below 4. label 0 if not; exact matches included in label 0.

MOLECULE	QUALITATIVE LABEL
COCCOc1cc(O[C@@H]2C[C@H](C)N(Cc3cnc(NC(C)=O)s3)C2)ncn1 [Example 1-122]	label 1
CC(=O)Nc1ncc(CN2CCC[C@@H](Oc3cc(C)nc(C)c3)C2)s1 [Example 1-65]	label 0
CC(=O)Nc1ncc(CN2C[C@H](Oc3ncc(F)cn3)C[C@@H]2C)s1 [Example 1-86]	label 0
[2H][C@]1(Oc2cc(OC)ncn2)C[C@H](C)N(Cc2cnc(NC(C)=O)s2)C1 [Example 1-164]	label 1
CCN(C)c1cc(O[C@@H]2C[C@H](C)N(Cc3cnc(NC(C)=O)s3)C2)ncn1 [Example 1-132]	label 0

API: query returns whether the molecule falls strictly under 4 in efflux ratio at 2 h. Query: CO[C@H]1C[C@@H](Oc2cc(O[C@@H]3C[C@H](C)N(Cc4cnc(NC(C)=O)s4)C3)ncn2)C1 [Example 1-123]
label 0

Given CC(=O)Nc1nc(F)c(CN2C[C@@H](Oc3cc(C)nc(C)c3)C[C@H]2C)s1 [Example 1-53] , is recorded efflux ratio at 2 h strictly lower than 4?
label 0

---

Each item that follows carries a reported efflux ratio at 2 h.
test system: P-gp (MDR1); assay: MDR1-MDCK Efflux Ratio Assay; assay type: in vitro ADME; conditions: dog, MDCK-MDR1, pH 7.4, MDR1-MDCK cells, 2 hr, pH 7.4; read-out: MDR1-MDCK Efflux Ratio (B-A/A-B)
Form: value (number only, do not type unit).

Worked examples follow.
MOLECULE	MEASURED PARAMETER	MEASUREMENT
[2H]C([2H])([2H])C(=O)Nc1ncc(CN2C[C@H](Oc3cc(OC)ncn3)C[C@@H]2C)s1 (single isomer, unassigned) [Example 1-156]	efflux ratio at 2 h	5.2
CC(=O)Nc1ncc(CN2C[C@@H](Oc3ccc(F)cn3)C[C@H]2C)s1 [Example 1-8]	efflux ratio at 2 h	2.3
COc1cc(O[C@H]2CC[C@H](C)N(Cc3cnc(NC(C)=O)s3)C2)ncn1 [Example 1-43]	efflux ratio at 2 h	6.9
CC(=O)Nc1ncc(CN2C[C@H](Oc3ccccn3)C[C@@H]2C)s1 [Example 1-14]	efflux ratio at 2 h	2.9
CC(=O)Nc1ncc(CN2C[C@H](Oc3cc(Cl)ncn3)C[C@@H]2C)s1 [Example 1-21]	efflux ratio at 2 h	3.8
[2H]C([2H])([2H])Oc1cc(O[C@@H]2C[C@H](C)N(Cc3cnc(NC(C)=O)s3)C2)ncn1 (single isomer, unassigned) [Example 1-154]	efflux ratio at 2 h	4.3

Query molecule follows.
Return reported efflux ratio at 2 h; argument: CC(=O)Nc1ncc(CN2C[C@H](Oc3ccc(C#N)cn3)C[C@@H]2C)s1 [Example 1-16]
9.7

---

test system: P-gp (MDR1); assay: MDR1-MDCK Efflux Ratio Assay; assay type: in vitro ADME; details: dog, MDCK-MDR1, pH 7.4, MDR1-MDCK cells, 2 hr, pH 7.4; read-out: MDR1-MDCK Efflux Ratio (B-A/A-B)
MEASURED PARAMETER: efflux ratio at 2 h
Quick one: just the number, no unit, thanks!

Here is how some compounds turned out for efflux ratio at 2 h.
STRUCTURE STRING	efflux ratio at 2 h
COc1cc(O[C@H]2CCCN(Cc3sc(NC(C)=O)nc3F)C2)ncn1	3.1
CC(=O)Nc1ncc(CN2CCC[C@H](Oc3ccc(F)cn3)C2)s1	2.3
COc1cc(O[C@@H]2C[C@H](C)N(Cc3sc(NC(C)=O)nc3F)C2)ncc1F	3.5
CC(=O)Nc1nc(F)c(CN2C[C@H](Oc3ncc(F)cn3)C[C@@H]2C)s1	5.3
CC(=O)Nc1nc(F)c(CN2C[C@H](Oc3ncccn3)C[C@@H]2C)s1	14.3
CC(=O)Nc1ncc(CN2C[C@H](Oc3cnc(C)cn3)C[C@@H]2C)s1	6.1

Now take the following compound into account.
For the compound shown here, `CC(=O)Nc1nc(F)c(CN2C[C@H](Oc3ccc(F)nc3)C[C@@H]2C)s1` , give the reported efflux ratio at 2 h.
3.8
